Values from patent US7432262B2

- assayTarget: DPP-IV (Homo sapiens, UniProt P27487)
- Construct: an extract of the human colon carcinoma cell line Caco-2 is used as the DPP IV source; endogenous in cells; extract solubilized with Nonidet-P40
- Sequence (P27487 whole entry): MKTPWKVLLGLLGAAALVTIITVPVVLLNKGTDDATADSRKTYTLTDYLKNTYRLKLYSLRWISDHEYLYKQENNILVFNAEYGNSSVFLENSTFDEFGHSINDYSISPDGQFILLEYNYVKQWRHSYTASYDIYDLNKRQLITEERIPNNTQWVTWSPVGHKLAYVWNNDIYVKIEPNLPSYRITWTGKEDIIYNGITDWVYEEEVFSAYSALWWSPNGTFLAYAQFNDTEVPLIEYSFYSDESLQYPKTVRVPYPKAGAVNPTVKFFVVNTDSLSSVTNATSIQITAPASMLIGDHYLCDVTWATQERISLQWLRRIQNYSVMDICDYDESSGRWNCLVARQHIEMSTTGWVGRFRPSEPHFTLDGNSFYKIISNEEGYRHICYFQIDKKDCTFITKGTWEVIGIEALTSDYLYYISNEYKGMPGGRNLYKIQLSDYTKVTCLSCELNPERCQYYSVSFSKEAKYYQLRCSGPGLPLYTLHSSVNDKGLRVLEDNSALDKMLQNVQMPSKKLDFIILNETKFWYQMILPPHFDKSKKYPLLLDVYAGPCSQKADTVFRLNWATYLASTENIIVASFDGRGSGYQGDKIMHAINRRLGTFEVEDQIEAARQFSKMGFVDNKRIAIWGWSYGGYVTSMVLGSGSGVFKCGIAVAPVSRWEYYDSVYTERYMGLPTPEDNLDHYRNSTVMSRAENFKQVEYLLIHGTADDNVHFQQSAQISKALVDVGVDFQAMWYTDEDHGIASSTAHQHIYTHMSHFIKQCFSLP
- assayDetails: DPP-IV assay with Caco-2 cell extract as DPP IV source
- measurementContext: extract of human colon carcinoma cell line Caco-2; AFC substrate 100 μM; 60 minutes, ambient temperature; 11-point curves; read-out: DPP IV inhibition IC50
measureName: IC50 (nM)

> print(dat)
                                   compound  measurename  measuredresult
1  CC#CCn1c(N2CCC[C@@H](N)C2)nc2c(=O)n(C)n(Cc3ccc4ccccc4n3)c(=O)c21 [1(1)]         IC50               4

(P) CC#CCn1c(N2CCC[C@@H](N)C2)nc2c(=O)n(CC#N)n(Cc3ccc4ccccc4n3)c(=O)c21 [Example 1]
(Q) CC#CCn1c(N2CCC[C@@H](N)C2)nc2c(=O)n(Cc3ccccc3)n(Cc3ccc4ccccc4n3)c(=O)c21 [1(3)]
(R) C=CCn1c(=O)c2nc(N3CCC[C@@H](N)C3)n(CC#CC)c2c(=O)n1Cc1ccc2ccccc2n1 [1(2)]
(S) CC#CCn1c(N2CCC[C@@H](N)C2)nc2c(=O)n(C)n(Cc3cccc4ccccc34)c(=O)c21 [1(4)]
Rank items: key IC50, increasing. # format: label list in the order the request specifies
P, R, Q, S
(P: 1 nM, R: 6 nM, Q: 14 nM, S: 52 nM)
